Documented phosphorylation enrichment across a set of sequences
molecular target: Fyn (UniProt P06241); assay: phosphorylation enrichment, bacterial display (enrichment ratio); higher = better substrate or ligand; peptides without Tyr show the background
Sequence (P06241 whole entry, looked up): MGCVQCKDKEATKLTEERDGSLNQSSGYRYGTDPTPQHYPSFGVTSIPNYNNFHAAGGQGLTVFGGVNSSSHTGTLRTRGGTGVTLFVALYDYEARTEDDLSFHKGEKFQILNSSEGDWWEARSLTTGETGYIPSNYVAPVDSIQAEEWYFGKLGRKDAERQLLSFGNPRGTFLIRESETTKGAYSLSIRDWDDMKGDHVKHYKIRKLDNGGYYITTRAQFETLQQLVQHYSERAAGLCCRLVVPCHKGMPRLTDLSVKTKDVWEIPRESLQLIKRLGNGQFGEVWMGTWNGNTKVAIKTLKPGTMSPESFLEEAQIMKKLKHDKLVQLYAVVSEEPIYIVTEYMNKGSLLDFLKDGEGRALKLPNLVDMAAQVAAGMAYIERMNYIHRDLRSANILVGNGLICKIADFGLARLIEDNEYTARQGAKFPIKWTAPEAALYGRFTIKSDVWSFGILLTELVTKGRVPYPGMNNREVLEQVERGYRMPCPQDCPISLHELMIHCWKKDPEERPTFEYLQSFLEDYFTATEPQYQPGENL
Respond using a number only.

Solved cases below.
Sequence Chain	Tested System	Recorded Endpoint	Numeric Readout
LLIMEYAKFGS [RET_Y806_V804M_YF]	Fyn (UniProt P06241)	phosphorylation enrichment	1.09
QMVRMYASSFM [AVPR2_Y124_G122R_YF]	Fyn (UniProt P06241)	phosphorylation enrichment	0.605
SKEPFYVRCIK [MYO1D_Y586_YF]	Fyn (UniProt P06241)	phosphorylation enrichment	0.339

**Q:** # query: phosphorylation enrichment of entry INPIIYAFVGG [CCR5_Y297_E302G]
**A:** 6.26

**Q:** Repeat for the following sequence: FQSKHYACIRQ [TIMP3_Y182_YF]
**A:** 0.375

**Q:** Repeat for the following sequence: AAARPYHIQKW [ACSBG1_Y677]
**A:** 0.371

**Q:** Repeat for the following sequence: KGFRGYSFDDI [TMEM230_Y110_YF]
**A:** 0.402

**Q:** Repeat for the following sequence: FGSIMYEFVGK [SLC18A1_Y251_V249I]
**A:** 1.09

**Q:** Repeat for the following sequence: VKMLPYTEVTR [GDI1_Y93_L92P]
**A:** 0.368

**Q:** Repeat for the following sequence: KFEDVYVGICL [B3GALNT1_Y269]
**A:** 3.06

**Q:** Repeat for the following sequence: NQELIYEGRRL [TBK1_Y354]
**A:** 8.61

**Q:** Repeat for the following sequence: QFNIQYSSSAA [ERBB2IP_Y981_YF]
**A:** 0.485

**Q:** Repeat for the following sequence: RKGIRYLTSGL [PIGA_Y82]
**A:** 0.434

###

biological target: c-Src SH2; assay: SH2 binding enrichment of the phosphorylated peptide, bacterial display (enrichment ratio); higher = better substrate or ligand; peptides without Tyr show the background
Rule: SH2 binding enrichment of 0.5 or more gives 1 (yes); anything lower gives 0 (no).

Worked set:
Sequence Chain	Tested System	Category Label
HHTDEYEFDEL [TGM1_Y134_YF]	c-Src SH2	0 (no)
SFVMVYEGNAR [INSR_Y1038_G1035V]	c-Src SH2	1 (yes)
SDVCMYRKNIY [SYNE2_Y570]	c-Src SH2	0 (no)
PTTKTYFPHFY [HBA1_Y43_D48Y]	c-Src SH2	1 (yes)
MAFDRYVAICS [OR8D4_Y123_C120Y_YF]	c-Src SH2	1 (yes)
AAVDNYCRHNF [HLA-DRB1_Y107_T106N_YF]	c-Src SH2	1 (yes)

**Q:** Say whether QHVPDYRQNVY [PCDHGA1_Y890] shows SH2 binding enrichment of 0.5 or more.
**A:** 0 (no)

**Q:** Repeat for the following sequence: SFGENYDNSKS [MAN1B1_Y60]
**A:** 1 (yes)

###

molecular target: Grb2 SH2 (UniProt P62993); experiment: SH2 binding enrichment of the phosphorylated peptide, bacterial display (enrichment ratio); higher = better substrate or ligand; peptides without Tyr show the background
Sequence (P62993 whole entry, looked up): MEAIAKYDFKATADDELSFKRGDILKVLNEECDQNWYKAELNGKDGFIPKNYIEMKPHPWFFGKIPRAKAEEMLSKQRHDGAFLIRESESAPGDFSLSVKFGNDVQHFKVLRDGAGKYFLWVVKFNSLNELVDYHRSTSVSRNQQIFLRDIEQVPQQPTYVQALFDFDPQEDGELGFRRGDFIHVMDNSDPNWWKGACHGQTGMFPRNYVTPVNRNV
Recorded Endpoint: SH2 binding enrichment

Sequence Chain	Result
DEDFLCREELA [POR_Y575_Y575C_YF]	0.8

**Q:** # query: SH2 binding enrichment | item PHRSIYFSSPK [MPG_Y75_Y71H] | system: Grb2 SH2 (UniProt P62993)
**A:** 1.01

**Q:** Repeat for the following sequence: KRAIGYFSATS [FAM120A_Y327_YF]
**A:** 1.02

**Q:** Repeat for the following sequence: RRFVFYFSFLL [PTEN_Y177_YF]
**A:** 0.752

**Q:** Repeat for the following sequence: SSDKVYAHQMD [MLH1_Y379_V384D]
**A:** 0.729
